Target: human PD-1 / PD-L1-Ig binding on Jurkat cell line over-expressing human PD-1 (Jurkat-PD-1) (Homo sapiens, UniProt Q15116)
Construct: expressed in transfected cells; host or cells: Jurkat
Sequence (Q15116 25-288): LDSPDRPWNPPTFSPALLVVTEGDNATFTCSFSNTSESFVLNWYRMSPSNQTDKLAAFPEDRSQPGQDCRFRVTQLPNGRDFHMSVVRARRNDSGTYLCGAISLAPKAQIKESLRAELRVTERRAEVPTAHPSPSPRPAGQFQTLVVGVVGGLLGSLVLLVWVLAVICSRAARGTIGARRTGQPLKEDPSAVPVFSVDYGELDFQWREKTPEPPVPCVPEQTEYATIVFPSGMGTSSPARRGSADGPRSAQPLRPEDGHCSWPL
Assay: Jurkat-PD-1 Cell Binding High-Content Screening Assay (CBA)
Type: cell-based
Settings: Jurkat-PD-1 cells, PE-labeled PD-L1-Ig 20 nM final; read-out: Jurkat HPD1_PDL1 IC50
Description: Example 3. Jurkat-PD-1 Cell Binding High-Content Screening Assay (CBA) Jurkat-PD-1 Cell Binding High-Content Screening Assay (CBA). Phycoerythrin (PE) was covalently linked to the Ig epitope tag of human PD-L1-Ig and fluorescently-labeled PD-L1-Ig was used for binding studies with a Jurkat cell line over-expressing human PD-1 (Jurkat-PD-1). Briefly, 8×10^3 Jurkat-hPD-1 cells were seeded into 384 well plates in 20 μl of DMEM supplemented with 10% fetal calf serum. […]
Where a SMILES comes first, the peptide text is derived from it. Bridges are numbered along the chain shown (N, C = ends). [ ]: non-standard residue; d: D form. Bip = N[C@@H](Cc1ccc(-c2ccccc2)cc1)C(=O)O; Orn = NCCC[C@H](N)C(=O)O; Dab = NCC[C@H](N)C(=O)O
measured_endpoint: pIC50
Notebook: values listed as pIC50 are -log10 of the concentration (mol/L).

| molecule | pIC50 |
| --- | --- |
| CC(C)C[C@H]1NC(=O)[C@H](CCCN)NC(=O)[C@H](CCC(=O)O)NC(=O)[C@H](Cc2ccc(-c3ccccc3)cc2)NC(=O)[C@H](C(C)C)NC(=O)[C@H](Cc2ccccc2F)NC(=O)[C@H](CC(=O)O)NC(=O)[C@H](Cc2ccc(OCC(=O)O)cc2)NC(=O)[C@H](CN)NC(=O)CSC[C@@H](C(=O)N[C@@H](C)C(N)=O)NC(=O)[C@H]([C@@H](C)O)NC(=O)[C@H](C(C)C)NC(=O)[C@H](CC2CCCCC2)NC(=O)[C@H](CCN)NC1=O [Compound 2150] | 8.12 |

response.value for CC(C)C[C@@H]1NC(=O)[C@H](Cc2c[nH]c3ccccc23)NC(=O)[C@H](CC(=O)O)NC(=O)[C@H](Cc2ccc(O)cc2)NC(=O)[C@H](Cc2ccccc2)NC(=O)CSC[C@@H](C(=O)NCC(N)=O)NC(=O)[C@H](CO)NC(=O)[C@H](C(C)C)NC(=O)[C@H](CC(C)C)NC(=O)[C@H](CCN)NC(=O)[C@@H](C)NC(=O)[C@H](CCCN)NC(=O)[C@H](C(C)C)NC(=O)[C@H](Cc2ccc(-c3ccccc3)cc2)NC1=O [Compound 1096] ({CH2CO}-FYDWL[Bip]V[Orn][dA][Dab]LVSCG-NH2; thioether N-14) (field: pIC50) = 7.16

response.value for Cc1cccc(C[C@@H]2NC(=O)[C@H](CC(=O)O)NC(=O)[C@H](Cc3ccc(C(=O)O)cc3)NC(=O)[C@H](CN)NC(=O)CSC[C@@H](C(=O)N[C@@H](C)C(N)=O)NC(=O)[C@H]([C@@H](C)O)NC(=O)[C@H](C(C)C)NC(=O)[C@H](CC3CCCCC3)NC(=O)[C@H](CCN)NC(=O)[C@@H](CC(C)C)NC(=O)[C@H](CCCN)NC(=O)[C@H](CCCNC(N)=O)NC(=O)[C@H](Cc3ccc(-c4ccccc4)cc3)NC(=O)[C@H](C(C)C)NC2=O)c1 [Compound 1202] (field: pIC50) = 8.01

response.value for CC(C)C[C@H]1NC(=O)[C@H](CCCN)NC(=O)[C@H](CCCNC(N)=O)NC(=O)[C@H](Cc2ccc(-c3ccccc3)cc2)NC(=O)[C@H](C(C)C)NC(=O)[C@H](Cc2c[nH]c3ccccc23)NC(=O)[C@H](CC(=O)O)NC(=O)[C@H](Cc2ccc(O)cc2)NC(=O)[C@H](CN)NC(=O)CSC[C@@H](C(=O)N[C@@H](C)C(N)=O)NC(=O)[C@H]([C@@H](C)O)NC(=O)[C@H](C(C)C)NC(=O)[C@H](CC2CCCCC2)NC(=O)[C@H](CCN)NC1=O [Compound 1157] (field: pIC50) = 7.97

response.value for CCCC[C@H]1NC(=O)[C@H](CCCN)NC(=O)[C@H]([C@@H](C)CC)NC(=O)[C@H](Cc2ccc(-c3ccccc3)cc2)NC(=O)[C@H](C(C)C)NC(=O)[C@H](Cc2c[nH]c3ccccc23)NC(=O)[C@H](CC(=O)O)NC(=O)[C@H](Cc2ccc(C(=O)O)cc2)NC(=O)[C@H](Cc2ccncc2)NC(=O)CSC[C@@H](C(=O)N[C@@H](C)C(N)=O)NC(=O)[C@H]([C@@H](C)O)NC(=O)[C@H](C(C)C)NC(=O)[C@H](CC2CCCCC2)NC(=O)[C@H](CCN)NC1=O [Compound 1705] (field: pIC50) = 7.84
